system: human T cells; test: IL-2 production by human T cells after 24 hours (ELISA of supernatants); assay type: cell-based; conditions: T-cell; resting human T cells, immobilized OKT3+CHO-B7-1, 24 hours; read-out: ID50 for inhibition of B7-1-mediated stimulation of IL-2 production
Quantity name: IC50

Enquiry: Form entry - test system: human T cells; read-out: IC50; compound: COC[C@H]1OC(=O)c2coc3c2[C@@]1(C)C1=C(C3=O)[C@@H]2CCC(=O)[C@@]2(C)C[C@H]1OC(C)=O [wortmannin]
Return: 10 to 100 nM
